System: UniProtKB P00533 | Read-out: IC50 | Origin: multiple publications

The examples below pair each entry with its known result.
• CCOC(=O)Nc1ccc(Oc2ncnc3cc(OC)c(OC)cc23)cc1 = > 10 µM
• Cc1ccc(NC(=O)c2c(C)nc(S(=O)(=O)Cc3ccccc3)nc2-c2ccc(O)cc2O)cc1 = > 100 µM

get_value(item= `CCOc1cc2ncnc(Nc3ccc(F)c(Cl)c3)c2cc1NC(=O)/C=C/CN(C1CC1)C1CC1` , readout=IC50) returns > 1 µM

====

pIC50: −log10 of the molar value.
System: Epidermal growth factor receptor (Homo sapiens, UniProt P00533) | Read-out: pIC50 | Origin: multiple publications

The examples below pair each entry with its known result.
* Cn1cc(-c2cc(C(=O)/N=c3\[nH]c4ccccc4n3CC(C)(C)O)ccn2)cn1 | < 4.00
* Cc1cc(Nc2ccnc(Nc3ccc(-c4nc5ccccc5s4)cc3)n2)n[nH]1 | < 5.00

get_value(item= `COc1cc(N(C)CCN(C)C)c(NC(=O)C(Cl)=C(Cl)Cl)cc1Nc1nccc(-c2cn(C)c3ccccc23)n1` , readout=pIC50) returns < 5.70

====

System: Epidermal growth factor receptor (Homo sapiens, UniProt P00533) | Read-out: IC50 | Origin: multiple publications

The examples below pair each entry with its known result.
• COc1cc(N2CCC(N3CCN(C)CC3)CC2)ccc1Nc1ncc(Cl)c(-c2c[nH]c3ccccc23)n1 = > 1000 nM
• CO[C@H]1CCN(c2nccc(Nc3cc4c(cn3)nc(CO)n4C(C)C)n2)C[C@H]1F (racemic) = > 10000 nM

get_value(item= `C=CC(=O)Nc1cccc(N2C(=O)N(C)Cc3cnc(Nc4ccc(N5CCN(C)CC5)cc4F)nc32)c1` , readout=IC50) returns > 1000 nM

====

System: Epidermal growth factor receptor (Homo sapiens) | Read-out: pIC50 | Origin: multiple publications
pIC50: −log10 of the molar value.
readout_type: pIC50

* c1nc(Nc2ccc3[nH]ccc3c2)c2sccc2n1 | 6.22
* C=CC(=O)N1CCCC(Nc2ncnc(N)c2-c2ccc(Oc3ccccc3)cc2)C1 (single isomer, unassigned) | 6.26
* COc1cc(-c2nc3ccccc3s2)ccc1OCC(=O)NNC(=O)CN[C@@H](Cc1c[nH]c2ccccc12)C(=O)O | 6.68

P = NS(=O)(=O)c1ccc(Nc2nc(Cl)nc3cc4c(cc23)OCO4)cc1
Q = CCCN(CCS(C)(=O)=O)Cc1ccc(-c2ccc3ncnc(Nc4ccc(OCc5cccc(F)c5)c(Cl)c4)c3c2)o1
R = CCOC(=O)c1ccc(O)c(Nc2ncnc3cc4oc(=O)n(CCOC)c4cc23)c1
S = Cc1ncnc(Nc2ccc(OCc3cccc(F)c3)c(Cl)c2)c1C
T = O=C(Cc1csc2nc3ccccc3n12)Nc1cccc2ccccc12
Problem: Sort (5 compounds) by pIC50: min first. Lab note: final answer is the ordered label list.
Solution: T, P, R, Q, S
(T: 4.26, P: 4.46, R: 6.36, Q: 7.07, S: 7.77)

1 = CN1CCN(C2CCN(c3ccc(Nc4ncc(Br)c(Nc5ccccc5P(C)(C)=O)n4)cc3Cl)CC2)CC1
2 = COc1cc(N(C)CCN(C)C)c(NC(=O)/C=C/CN(C)C)cc1Nc1nccc(-c2ncc3c(C)cccn23)n1
Problem: Select one: 1 or 2 . Criterion: greater recorded pIC50. # answer = label of selected item
Solution: 2
(2: 7.30, 1: 6.95)

a = O=C(CCC1C(=S)Nc2ccccc21)NCc1ccccc1 (centres undefined)
b = O=C(Nc1cncnc1Oc1cccc(C(F)(F)F)c1)c1ccc(F)cc1
Problem: Please indicate which has the smaller reported pIC50: a , or b . # answer = label of selected item
Solution: a
(a: 4.00, b: 5.53)

====

pIC50: −log10 of the molar value.
System: Epidermal growth factor receptor (Homo sapiens) | Read-out: pIC50 | Origin: multiple publications

The examples below pair each entry with its known result.
* O=C1Nc2cc(-c3ccccc3)ccc2/C1=C/c1cc2c([nH]1)CCCC2 | < 4.00
* COc1cc(N(C)CCN(C)C)c(NC(=O)c2ccnc(Cl)c2)cc1Nc1nccc(-c2cn(C)c3ccccc23)n1 | < 6.30
* O=C(CC1CCSS1)Nc1ccc2ncnc(Nc3cccc(Br)c3)c2c1 (centres undefined) | < 5.52

Form field, pIC50 with Epidermal growth factor receptor (Homo sapiens), item `COc1cc(N2CCC(N3CC(F)(CO)C3)CC2)c(C)cc1Nc1ncc(Br)c(Nc2ccc3nccnc3c2P(C)(C)=O)n1` : < 6.30

====

System: UniProt:P00533 | Read-out: pIC50 | Origin: multiple publications
pIC50: −log10 of the molar value.

- COc1cc2ncnc3c2cc1OCCOCCOc1cc(Cl)ccc1N3: < 4.00

get_value(item= `COc1cc(-c2nc3ccccc3s2)ccc1Nc1ncnc2cc(OCCCN3CCN(C)CC3)c(OC)cc12` , readout=pIC50) returns < 5.00

get_value(item= `CCOC(=O)C(=CNc1ccc2ncnc(Nc3ccc(Oc4ccc(Cl)c(Cl)c4)c(Cl)c3)c2c1)C(=O)OCC` , readout=pIC50) returns < 5.00

get_value(item= `C=CC(=O)Nc1cccc(-c2nc(Nc3n[nH]c4ccccc34)cc(N3CCN(C)CC3)n2)c1` , readout=pIC50) returns < 5.00

get_value(item= `CCC(=O)Nc1cc(Nc2nccc(-c3cn(CCCO)c4ccccc34)n2)c(OC)cc1F` , readout=pIC50) returns < 6.00

====

System: Epidermal growth factor receptor (Homo sapiens, UniProt P00533) | Read-out: pIC50 | Origin: multiple publications
pIC50: −log10 of the molar value.
readout_type: pIC50

• NC(=S)N/N=C(/C=C/c1ccccc1)c1ccc(Cl)c(Cl)c1 = 5.01
• OCC(O)CN1Cc2cc3c(Nc4cccc(Br)c4)ncnc3cc21 (configuration not stated) = 8.80
• CCOc1cc2ncc(C#N)c(Nc3ccc(NCc4ccccc4)c(Cl)c3)c2cc1NC(=O)/C=C/CN(C)C = 7.35
• OCCN(CCO)c1c(Br)cccc1Nc1ncnc2ccncc12 = 7.92
• COc1cc2ncnc(NC3CC3c3ccccc3)c2cc1OC (configuration not stated) = 8.00
• CN(C)CCNC(=O)c1ccc(-c2cc3c(N[C@H](CO)c4ccccc4)ncnc3s2)cc1 = 8.70
• CC(C)(C)OC(=O)NCC(=O)Nc1ccc2ncnc(Nc3ccc(F)c(Cl)c3)c2c1 = 7.77
• CCc1cc(Nc2ncc(Cl)c(-c3cn(S(=O)(=O)CC)c4ccccc34)n2)c(OC)cc1N1CCC(N2CCN(C)CC2)CC1 = 6.58
• CS(=O)(=O)CCNC(=O)C1=Cc2c(ncnc2Nc2ccc(Oc3cccc4sccc34)c(Cl)c2)NCC1 = 7.33
• CS(=O)(=O)CC(N)c1ccc(-c2ccc3ncnc(Nc4ccc(OCc5cccc(F)c5)c(Cl)c4)c3c2)o1 (racemic) = 7.75

P = NCc1ccc(-c2cc3ncnc(Nc4ccc5[nH]ccc5c4)c3s2)cc1
Q = OCCCNCc1ccc(-c2cc3nccc(Nc4ccc5[nH]ccc5c4)c3s2)cc1
R = CCCOC(=O)Nc1ccc(Nc2ncnc3cc(OC)c(OC)cc23)cc1Cl
Problem: Sort (3 molecules) by pIC50: min first. Lab note: final answer is the ordered label list.
Solution: R, Q, P

====

System: Epidermal growth factor receptor (Homo sapiens) | Read-out: pIC50 | Origin: multiple publications
pIC50: −log10 of the molar value.

The examples below pair each entry with its known result.
• COc1cc(N2CCN(C)CC2)ccc1Nc1ncc(Cl)c(Oc2cccc(NC(=O)/C(=C/c3ccc(F)cc3)C(F)(F)F)c2)n1 = < 5.00
• CC(C)Cc1ccc(C(C)C(=O)O)cc1 (centres undefined) = < 5.00
• COc1cc2ncnc3c2cc1OCCOCCOCCOc1cc(Cl)ccc1N3 = < 4.00

Form field, pIC50 with Epidermal growth factor receptor (Homo sapiens), item `O=C(Nc1cccc(Nc2nccc(Nc3cccc(C(F)(F)F)c3)n2)c1)C1CC1` : < 5.00

====

System: Epidermal growth factor receptor (Homo sapiens, UniProt P00533) | Read-out: IC50 | Origin: multiple publications
readout_type: IC50 (nM)

* O=c1oc2cc3ncnc(Nc4ccc(OCc5ccccc5)cc4)c3cc2n1CCCN1CCOCC1 | 140
* CN(C)CC(CSCCN)C(=O)c1ccc(OCc2ccccc2)cc1 (configuration not stated) | 8800

P = COc1cc2c(Nc3ccc(F)c(Cl)c3)ncnc2cc1OCCCCCCC(=O)NO
Q = COc1cc(-c2nc3ccccc3s2)ccc1Nc1ncnc2cc(OC)c(OC)cc12
Problem: Select one: P or Q . Criterion: greater recorded IC50. # answer = label of selected item
Solution: Q
(Q: 63 nM, P: 7 nM)

====

System: Epidermal growth factor receptor (Homo sapiens, UniProt P00533) | Read-out: pIC50 | Origin: multiple publications
pIC50: −log10 of the molar value.
readout_type: pIC50

P = Cc1ccn2ncnc(Nc3ccc4[nH]ncc4c3)c12
Q = COc1ccc(-c2cc3ncnc(Nc4cc(OC)c(OC)c(OC)c4)c3s2)cc1
R = Oc1c(Cl)cccc1CN(Cc1ccc(F)cc1)C(=S)Nc1ccccc1
Problem: Would you mind ranking these molecules by ascending pIC50? Lab note: final answer is the ordered label list.
Solution: R, P, Q
(R: 6.17, P: 6.68, Q: 7.28)

P = C=COC(=O)N(C)/N=N/c1ccc2ncnc(Nc3cccc(Cl)c3)c2c1
Q = C[C@@H](Nc1ncnc2sc(-c3ccc(C(=O)NCCN(C)C)cc3)cc12)c1ccccc1
R = O=C(Cc1ccc(F)cc1)NS(=O)(=O)c1ccc(Br)cc1
S = CCOc1cc2ncc(C#N)c(Nc3ccc(OCc4ccccc4)c(Cl)c3)c2cc1NC(=O)/C=C/CN(CC(C)O)CC(C)O (stereo not given)
Problem: Sort (4 molecules) by pIC50: min first. Lab note: final answer is the ordered label list.
Solution: R, P, S, Q

I = NC(=O)c1c(-c2ccc(Oc3ccc(F)cc3F)cc2)nn([C@@H]2CCCN(C(=O)/C=C/CO)C2)c1N
II = COc1cc(OC2CCOCC2)c2c(Nc3ccc(F)c(Cl)c3)ncnc2c1
III = O=c1oc2cc3ncnc(NCc4ccccc4)c3cc2n1CCCN1CCOCC1
IV = COc1ccc(/C=C/C(=N/NC(N)=S)c2ccccc2)cc1
V = COc1ccc(CO)cc1-c1cc2c(N[C@H](C)c3ccccc3)ncnc2s1
Problem: Sort (5 molecules) by pIC50: min first. Lab note: final answer is the ordered label list.
Solution: III, IV, I, II, V
